Where these numbers come from: PubChem BioAssay AID1159580

Test: chemical genetic growth profiling, strain panel (AID 1159580);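 also: tested at 20 µM; growth read once vehicle control cultures reached saturation at 30 °C; 1 = growth at the plate median or of vehicle wells; lower values mean less growth of the strain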
Conditions: S. cerevisiae deletion strains, growth OD, locus YNL322C, strain KRE1 (second series)
The whole screen tested about 5,500 compounds, of which about 2,000 (36%) were called active. Roughly 18% stayed inconclusive and do not appear here. Rule as the data show it: active = normalized growth mostly below about 0.91 (no sharp cut-off); inconclusive = no clear call, values can overlap the other calls; inactive = mostly above about 0.92. This is one part of the list.
Select the correct class. Options are TRUE = active, FALSE = inactive and nothing else.

[[record]]
compound = "CC(=O)N1CCN(c2ccc(OCC3CO[C@](Cn4ccnc4)(c4ccc(Cl)cc4Cl)O3)cc2)CC1 (some centres undefined)"
discrete_label = "TRUE"


query: GET /call?item= "CCC(=O)NCC[C@@H]1CCc2ccc3c(c21)CCO3" returns the recorded outcome of this test.
result: FALSE

query: State the result this test recorded for "CNC[C@H](O)c1cccc(O)c1" .
result: FALSE

query: Outcome logged for "CC(C)c1cccc(O)c(=O)c1" in this assay:
result: TRUE

###

Test: chemical genetic growth profiling, strain panel (AID 1159580);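 also: tested at 20 µM; growth read once vehicle control cultures reached saturation at 30 °C; 1 = growth at the plate median or of vehicle wells; lower values mean less growth of the strain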
Details: S. cerevisiae deletion strains, growth OD, locus YJL115W, strain asf1, stronger effect = lower value
The campaign covered roughly 5,500 compounds. About 2,000 (36%) were called active. Roughly 18% stayed inconclusive and do not appear here. Some of the results follow.
parameter: normalized growth

In the examples that follow, each entry is paired with its recorded normalized growth.
[[record]]
compound = "CC[C@@]1(O)C(=O)OCc2c1cc1n(c2=O)Cc2cc3cc(O)ccc3nc2-1"
parameter = "normalized growth"
reading = "0.984 (inactive)"

[[record]]
compound = "COC1=CC(=O)C=C(OC)C1=O"
parameter = "normalized growth"
reading = "1.01 (inactive)"

[[record]]
compound = "C[C@@H]1O[C@@H](O[C@H]2CC[C@]3(C=O)C4CC[C@]5(C)[C@@H](C6=CC(=O)OC6)CC[C@]5(O)C4CC[C@]3(O)C2)[C@H](O)[C@H](O)[C@H]1O (stereo partly specified)"
parameter = "normalized growth"
reading = "0.999 (inactive)"

[[record]]
compound = "CSc1nc(NC(C)C)nc(NC(C)C)n1"
parameter = "normalized growth"
reading = "0.978 (inactive)"

[[record]]
compound = "C[C@H]1O[C@H](O[C@H]2[C@H](O)[C@@H](O)[C@@H](O[C@H]3[C@H](O)[C@@H](O)C(O)O[C@@H]3CO)O[C@@H]2CO)[C@H](O)[C@@H](O)[C@@H]1N[C@H]1C=C(CO)[C@@H](O)[C@H](O)[C@H]1O (stereo partly specified)"
parameter = "normalized growth"
reading = "0.974 (inactive)"


According to the records, this compound CCCCCC(O)C1C(=O)OC(C)C(O)/C=C/C=C/C=C/C=C/C=C(\C)C(O)CC(O)CC(O)CC(O)CC(O)CC(O)CC1O (stereo unspecified) displays normalized growth of 0.991 (inactive)

###

Assay: chemical genetic growth profiling, strain panel (AID 1159580);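 also: tested at 20 µM; growth read once vehicle control cultures reached saturation at 30 °C; 1 = growth at the plate median or of vehicle wells; lower values mean less growth of the strain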
Details: S. cerevisiae deletion strains, growth OD, locus YNL067W, strain RPL9B, stronger effect = lower value
Hit rate of the full screen: of about 5,500 compounds, about 2,000 (36%) were called active. Inconclusive results (about 18%) are left out. The list shows a part of the results.
Quick list: normalized growth per entry.

[[record]]
compound = "COc1nc(NC(C)C)nc(NC(C)C)n1"
reading = "1.01 (inactive)"


For this compound ( CC1(C)S[C@@H]2[C@H](NC(=O)C(C(=O)O)c3ccccc3)C(=O)N2[C@H]1C(=O)O (stereo partly specified) ), measured normalized growth is 1 (inactive)

Sample COC1CC(O[C@H]2CC[C@]3(C=O)C4CC[C@]5(C)C(C6=CC(=O)OC6)CC[C@]5(O)C4CC[C@]3(O)C2)OC(C)C1O (stereo partly specified) ; normalized growth observed: 1 (inactive)

Consider "NC(=O)c1ccc([N+](=O)[O-])cc1Cl" . Its measured normalized growth is 0.969 (inactive)

Notebook: "COc1ccc(-c2cc(=O)c3c(O)cc(O)c(-c4cc(-c5cc(=O)c6c(O)cc(O)cc6o5)ccc4OC)c3o2)cc1" , normalized growth read as 1.02 (inactive)

The compound identified as "C/C=C(\C)C(=O)O[C@@H]1c2c(ccc3ccc(=O)oc23)OC(C)(C)[C@@H]1OC(C)=O" registered its normalized growth at 0.997 (inactive)

The measured normalized growth associated with CCOC(=O)CC(SP(=S)(OC)OC)C(=O)OCC (stereo unspecified) reads 0.998 (inactive)

Just so you know, measured normalized growth for "Cc1ccc(C(C)C)c(O)c1C(=O)O" came out at 0.997 (inactive)

The compound listed as "Nc1ccc(S(=O)(=O)Nc2ncccn2)cc1" has a reported normalized growth of 0.99 (inactive)

Entry under test: "C[N+]1(C)C[C@H](O)[C@H](C(=O)[O-])C1" . Its normalized growth was 1.01 (inactive)

Record summary for "Cc1c(C(N)=O)cc([N+](=O)[O-])cc1[N+](=O)[O-]" : reported normalized growth = 1.01 (inactive)
